The measurements presented in this section are drawn from the supplement of paper PMC12042874.

# Assay summary: amyloid nucleation score (Sup35N fusion, yeast selection) (log enrichment); library NNK3; higher = more nucleation; inactive = no reads after selection;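 further: zero at mode of non-aggregating sequences after 7 days selection at 30°C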
Observed property: amyloid nucleation score

# Query sequence, Observed property, Observed
measured = [
    ("CSRYFRWYHVLAYCSVPNRM", "amyloid nucleation score", "inactive"),
    ("ELLCSYTYKIGFQWFC", "amyloid nucleation score", "inactive"),
    ("NVYELIDCGLTYQVYSYGSR", "amyloid nucleation score", 0.611),
    ("SMTWSRIAFEIMWNSVCRLI", "amyloid nucleation score", "inactive"),
    ("TVARMRFSTMTRDAQCVGRL", "amyloid nucleation score", 0.107),
    ("HYLRHHIAILSLATGLMETE", "amyloid nucleation score", "inactive"),
    ("VIRVTWGYNWNNYVKHVYRS", "amyloid nucleation score", 0.35),
    ("SRWVLSWSIVITIHLDMRSL", "amyloid nucleation score", "inactive"),
    ("YEMIKFSKY", "amyloid nucleation score", "inactive"),
    ("FDVRDRSRIGLSMTITWMKI", "amyloid nucleation score", "inactive"),
    ("TLFQSFRELLRNGVFCLRTM", "amyloid nucleation score", "inactive"),
    ("VLIYLDRCRNFDEKGFHNFC", "amyloid nucleation score", 0.448),
    ("LKLYQAAL", "amyloid nucleation score", "inactive"),
]
